Origin of values: the supplement of paper PMC7411054

Tested on: WPMY1-ACTB-RAB5A
Experiment summary: phenotypically active (imaging signature differs from DMSO and reproducible) at any of 0.3-9 uM (binary (1 = active, 0 = inactive)); higher = active
Condition details: treatment time: 24 h
Measurement label: phenotypically active

* CC(C)(Oc1ccc(C2CC2(Cl)Cl)cc1)C(=O)O (stereo not drawn) [ciprofibrate] | 0
* CCOC(=O)[C@H](CCc1ccccc1)N[C@@H](C)C(=O)N1CCC[C@H]1C(=O)O | 0
* CCC1(c2ccccc2)NC(=O)N(C)C1=O (stereo not drawn) | 0

###

System: WPMY1-CANX-COX4
Experiment summary: phenotypically active (imaging signature differs from DMSO and reproducible) at any of 0.3-9 uM (binary (1 = active, 0 = inactive)); higher = active
Condition details: treatment time: 24 h
Structures can show the parent of a compound that is named as a salt.
Measurement label: phenotypically active

• C[C@]12CC[C@@H]3c4ccc(O)cc4CC[C@H]3[C@@H]1CC[C@@H]2O [estradiol] = 0
• CC1(C)CCC(C)(C)c2cc(C(O)C(=O)Nc3ccc(C(=O)O)cc3F)ccc21 (centres undefined) = 0
• Nc1ncnc2c1c(COc1cccc(Cl)c1)nn2C1CCOCC1 = 0
• CC(C)NCC(O)COc1ccc(CC(N)=O)cc1 (centres undefined) [atenolol-()] = 0
• CC(C[N+](C)(C)C)OC(N)=O (centres undefined) [bethanechol] = 0
• O=C(O)[C@H]1CCCC[C@H]1C(=O)N1CCc2ccccc2[C@H]1CN1C(=O)c2ccccc2C1=O = 0
• CC(=O)OCC[N+](C)(C)C [acetylcholine] = 0
• Cc1c(NC(=O)OC[C@@H]2COCCN2)cn2ncnc(Nc3ccc4c(cnn4Cc4cccc(F)c4)c3)c12 = 1
• C[C@@H](Nc1ncnc2[nH]c(-c3ccc(O)cc3)cc12)c1ccccc1 [PKI 166 hydrochloride] = 1
• CC(C)OC(=O)C(C)(C)Oc1ccc(C(=O)c2ccc(Cl)cc2)cc1 [Fenofibrate] = 0
• COc1cc(C(=O)N2CCC(N3CCN(C)CC3)CC2)ccc1Nc1ncc2c(n1)N(C)c1ccccc1C(=O)N2C = 1
• Nc1c2c(nc3ccccc13)CCCC2 [tacrine] = 0
• CC(C)(C)NC[C@H](O)COc1cccc2c1CCCC2=O [levobunolol] = 0
• COc1cc(N2CCC(N)CC2)ccc1Nc1ncc(Cl)c(-c2c[nH]c3ccccc23)n1 = 1

###

Test system: HepG2-ACTB-RAB5A
Experiment summary: phenotypically active (imaging signature differs from DMSO and reproducible) at any of 0.3-9 uM (binary (1 = active, 0 = inactive)); higher = active
Condition details: treatment time: 24 h
Structures can show the parent of a compound that is named as a salt.
In this section, each of the compounds is paired with its reported phenotypically active.
Measurement label: phenotypically active

* CCCCC(=O)O[C@H]1CC[C@H]2[C@@H]3CCc4cc(O)ccc4[C@H]3CC[C@]12C [estradiol valerate] | 0 (inactive)
* Cc1cnc(C(=O)NCCc2ccc(S(=O)(=O)NC(=O)NC3CCCCC3)cc2)cn1 [glipizide] | 0 (inactive)
* CO[C@H]1C=CC=C(C)C(=O)NC2=CC(=O)C(NCCN(C)C)=C(C[C@@H](C)C[C@H](OC)[C@H](O)[C@@H](C)C=C(C)[C@@H]1OC(N)=O)C2=O [17-DMAG hydrochloride] | 1 (active)
* COc1cc2c(Nc3ccc(Br)cc3F)ncnc2cc1OCC1CCN(C)CC1 [vandetanib] | 1 (active)
* OC(CCN1CCCCC1)(c1ccccc1)C1CC2C=CC1C2 (stereo not drawn) [biperiden] | 0 (inactive)
* Cn1cnc2c(F)c(Nc3ccc(Br)cc3Cl)c(C(=O)NOCCO)cc21 [selumetinib] | 1 (active)
* O=C1CCc2cc(OCCCCc3nnnn3C3CCCCC3)ccc2N1 [Cilostazol] | 0 (inactive)
* NC(=O)c1sc2c([N+](=O)[O-])cc(C(F)(F)F)cc2[n+]1[O-] [Cyclapolin 9] | 0 (inactive)
* CN1CCN(c2ccc(OC(F)(F)F)c(Nc3ncc4c(n3)-c3c(c(C(N)=O)nn3CCO)CC4)c2)CC1 | 1 (active)
* NC(=O)c1ccc(N(C(N)=O)c2c(F)cccc2F)nc1-c1ccc(F)cc1F | 0 (inactive)
* Clc1cccc(Nc2nnc(-c3ccccc3)c3ccccc23)c1 | 0 (inactive)
* COc1cc(O)cc(O)c1C(=O)/C=C/c1ccccc1 [Cardamonin] | 1 (active)
* CC[C@@H](N)CNc1ccnc(-c2cc(-c3cnn(C)c3)ccc2O)n1 | 1 (active)
* O=C(/C=C/c1ccc(O)c(O)c1)O[C@@H]1C[C@](O)(C(=O)O)C[C@@H](O)[C@H]1O [Chlorogenic acid] | 0 (inactive)
* CC(C)(C)c1cnc(CSc2cnc(NC(=O)C3CCNCC3)s2)o1 | 1 (active)
* CN(CCOc1ccc(C[C@H](Nc2ccccc2C(=O)c2ccccc2)C(=O)O)cc1)c1ccccn1 [GW 1929 hydrochloride] | 0 (inactive)
* CN1CC(=O)N2[C@H](c3ccc4c(c3)OCO4)c3[nH]c4ccccc4c3C[C@@H]2C1=O [tadalafil] | 0 (inactive)
* COc1cc2c(N3CCN(C(=O)Nc4ccc(OC(C)C)cc4)CC3)ncnc2cc1OCCCN1CCCCC1 [tandutinib] | 1 (active)

###

Tested on: WPMY1-TP53BP1-CLTA
Experiment summary: phenotypically active (imaging signature differs from DMSO and reproducible) at any of 0.3-9 uM (binary (1 = active, 0 = inactive)); higher = active
Condition details: treatment time: 24 h
Measurement label: phenotypically active

* O=C(NC(NC(=S)Nc1ccc(F)c([N+](=O)[O-])c1)C(Cl)(Cl)Cl)C(c1ccccc1)c1ccccc1 (configuration not stated) | 1
* Fc1ccc(Cl)cc1-c1nc(Nc2ccncc2)c2nccnc2n1 | 1
* Nc1cc(-c2ccncc2)c[nH]c1=O | 0
* NC(=O)c1ccc(I)c([N+](=O)[O-])c1 | 0
* CCCCOc1c(C(=O)c2c(F)cc(C)cc2F)cnc2[nH]ncc12 | 0
* O=C(/C=C/N1C[C@H]2C[C@@H]1CN2c1ccccn1)c1ccccc1O | 0
* COc1cc2nc(-c3cc(F)ccc3O)nc(N[C@@H]3CNC[C@H]3C(C)(C)O)c2cc1OC | 1

###

Tested on: A549-TUBA1B-RELA
Experiment summary: phenotypically active (imaging signature differs from DMSO and reproducible) at any of 0.3-9 uM (binary (1 = active, 0 = inactive)); higher = active
Condition details: treatment time: 24 h
Counter-ions that a name gives are not always drawn.
Classes used: active, inactive

- COc1cccc(-c2cc(F)ccc2[C@H]2Cc3nc(N)nc(C)c3C(=O)N2)n1: active
- O=P(O)(O)C(O)(Cc1cccnc1)P(=O)(O)O [risedronate]: inactive
- O=C1CCc2c(ccc3ccccc23)O1: inactive
- COc1ccc2c(c1)N(C(C)=O)[C@H]1[C@@H]3CO[C@H](C)[C@@H]4CN5CC[C@]21[C@@H]5C[C@H]34: inactive
- CN1CCN2c3ncccc3Cc3ccccc3C2C1 (stereo not given): inactive
- COc1ccc(C(=O)Nc2sc3c(c2C(N)=O)CCCC3)cc1OC: inactive
- Clc1ccc(C(c2ccc(Cl)cc2)[n+]2ccn(CC(OCc3ccc(Cl)cc3Cl)c3ccc(Cl)cc3Cl)c2)cc1 (stereo not given) [Calmidazolium chloride]: inactive
- O=C1c2ccccc2-c2nc3nonc3nc21: active
- COc1ccc([C@@H]2Sc3ccccc3N(CCN(C)C)C(=O)[C@@H]2OC(C)=O)cc1: inactive
- CCCc1cc(C)n(C)c(=O)c1CN(C)C(=O)c1cc(-c2ccc(N3CCN(C(C)C)CC3)nc2)cc2c1cnn2C(C)C: active
- Cc1cc(Nc2cc(C)c(C#N)c(NC(C)CCCC(C)(C)O)n2)n[nH]1 (stereo not given) [TC-A 2317 hydrochloride]: active
- Cc1nc(Nc2ncc(C(=O)Nc3c(C)cccc3Cl)s2)cc(N2CCN(CCO)CC2)n1: active
- Brc1c(NC2=NCCN2)ccc2nccnc12: inactive
- CS(=O)(=O)c1ccc(-c2nnc(/C=C/c3nnc(-c4ccc(C#N)cc4)o3)n2-c2ccccc2Cl)nc1: inactive
- NC(=O)c1cccc(-c2cc(Nc3ccc(OC(F)(F)F)cc3)ncn2)c1: active
- C=C1CC[C@@H]2[C@](C)(CO)[C@H](O)CC[C@@]2(C)[C@@H]1C/C=C1/C(=O)OC[C@H]1O [Andrographolide]: active
- CCCC(=O)Nc1ncnc2c1ncn2[C@@H]1O[C@@H]2COP(=O)(O)O[C@H]2[C@H]1OC(=O)CCC [Dibutyryl-cAMP, sodium salt]: inactive
- CCCc1cc2c(N3CCN(C4=NCC(C)(C)S4)CC3)ncnc2s1 [MI 2 dihydrochloride]: inactive
- Oc1cccc(Nc2ccnc3cc(-c4cccc(CN5CCOCC5)c4)sc23)c1 [LCB 03-0110 dihydrochloride]: active
- Nc1ncnc2c1ncn2[C@H]1O[C@@H](C(=O)N2CCN(CC(=O)Nc3cccc4c3CNC4=O)CC2)[C@H](O)[C@@H]1O: inactive
